# credit: PubChem BioAssay

Below, each of the compounds is paired with its reported viability value.
assay: viability of HCT116 without oncogenic beta-catenin – human colon tumor cells, pilot screen (AID 823); details: HCT116 beta-catenin knockout viability, CellTiter-Glo, 60 h; at 10 µM; stronger effect = lower value;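 note: 0% = wells killed by 20 µM Hyamine and 100% = untreated DMSO cell wells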
Inconclusive results are not listed.
Report only the number, with the unit % understood.

Cc1cc(NC(=O)CSc2c3c(nc4ccccc24)CCC3)no1 ... 78.1
CCOC(=O)Cn1nc(-c2ccc(Cl)cc2)cc1N ... 102

Exercise: Endpoint output: viability of C=CCn1c(SCC(=O)c2cccs2)nc2sc(CC)cc2c1=O . Value?
Key: 76.8

Exercise: Endpoint output: viability of CCOC(=O)N1CCC(N2C(=O)c3ccccc3C2Nc2cc(OC)c(OC)c(OC)c2)CC1 (stereo unspecified) . Value?
Key: 92.2

Exercise: Endpoint output: viability of CN(C)c1nc2ccc(OCCN3CCCCC3)cc2s1 . Value?
Key: 93

Exercise: Endpoint output: viability of Cc1onc(-c2c(Cl)cccc2Cl)c1C(=O)NCC1CCCO1 (stereo unspecified) . Value?
Key: 91.7

###

target: Receptor tyrosine-protein kinase erbB-2 (Homo sapiens) (UniProt P04626); assay: Her2 expression decrease, cell viability multiplex – SKBR3 breast tumor cells, AlphaScreen, ATP viability, primary screen (AID 461); settings: 18-24 h, at 10 µM, stronger effect = lower value;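 note: lower value means less Her2 protein in the cells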
Sequence (P04626 whole entry, looked up): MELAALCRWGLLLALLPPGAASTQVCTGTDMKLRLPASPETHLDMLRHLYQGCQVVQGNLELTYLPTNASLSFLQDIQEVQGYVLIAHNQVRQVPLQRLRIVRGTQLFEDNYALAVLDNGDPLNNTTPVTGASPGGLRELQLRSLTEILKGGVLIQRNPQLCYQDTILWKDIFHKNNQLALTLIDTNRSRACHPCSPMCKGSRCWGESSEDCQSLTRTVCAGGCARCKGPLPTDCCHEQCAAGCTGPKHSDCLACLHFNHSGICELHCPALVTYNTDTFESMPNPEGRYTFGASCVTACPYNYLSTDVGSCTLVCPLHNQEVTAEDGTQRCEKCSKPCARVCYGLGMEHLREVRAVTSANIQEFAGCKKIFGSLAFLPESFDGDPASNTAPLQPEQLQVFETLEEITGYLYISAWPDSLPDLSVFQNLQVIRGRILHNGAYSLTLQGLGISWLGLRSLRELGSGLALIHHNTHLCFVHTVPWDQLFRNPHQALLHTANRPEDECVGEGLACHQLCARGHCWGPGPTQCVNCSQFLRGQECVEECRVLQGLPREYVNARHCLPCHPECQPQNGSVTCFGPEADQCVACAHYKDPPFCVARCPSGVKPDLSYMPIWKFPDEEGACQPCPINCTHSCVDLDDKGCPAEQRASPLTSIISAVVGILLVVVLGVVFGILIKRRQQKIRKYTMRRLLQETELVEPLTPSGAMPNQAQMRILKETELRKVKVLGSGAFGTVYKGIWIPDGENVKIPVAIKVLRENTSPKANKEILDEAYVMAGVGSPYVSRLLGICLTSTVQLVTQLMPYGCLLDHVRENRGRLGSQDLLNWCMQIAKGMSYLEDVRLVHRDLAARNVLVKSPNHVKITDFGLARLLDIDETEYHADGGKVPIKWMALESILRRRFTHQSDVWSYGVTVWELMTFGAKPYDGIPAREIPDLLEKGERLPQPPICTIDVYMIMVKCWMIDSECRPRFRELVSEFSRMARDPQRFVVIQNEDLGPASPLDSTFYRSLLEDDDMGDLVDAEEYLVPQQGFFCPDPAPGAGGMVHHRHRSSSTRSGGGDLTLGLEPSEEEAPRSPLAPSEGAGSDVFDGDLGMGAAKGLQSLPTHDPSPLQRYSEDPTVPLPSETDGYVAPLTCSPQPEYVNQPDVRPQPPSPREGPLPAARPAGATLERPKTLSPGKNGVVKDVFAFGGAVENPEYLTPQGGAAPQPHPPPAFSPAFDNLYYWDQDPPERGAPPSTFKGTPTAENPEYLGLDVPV
Endpoint name: Her2 level (%)
Report only the number, with the unit % understood.

Cc1ccc(-c2nc3cc(NC(=O)C(C)C)ccc3o2)cc1 ... 112
O=C(c1ccc(Br)o1)N(Cc1ccccc1)c1ccccn1 ... 102
Nc1nc2n(n1)C(c1cccc(Br)c1)CC(c1ccccc1)N2 (stereo not given) ... 103
CCCCN(C)C(=O)c1cn(C)c2ccc(S(=O)(=O)N(C)C)cc2c1=O ... 102
O=C1CCCc2c1cc(C(=O)NCCCN1CCOCC1)c(=O)n2-c1ccc(Cl)cc1 ... 95.5

Exercise: Recorded Her2 level for CC1Cc2nc(SCC(=O)Nc3nccs3)n(C)c(=O)c2S1 (stereo not given) with Receptor tyrosine-protein kinase erbB-2 (Homo sapiens) (UniProt P04626), please?
Key: 89

Exercise: Recorded Her2 level for COC(=O)c1sc(NC(=O)COc2ccccc2OC)nc1C with Receptor tyrosine-protein kinase erbB-2 (Homo sapiens) (UniProt P04626), please?
Key: 90

Exercise: Recorded Her2 level for O=C(Cc1cccs1)Nc1ccccc1NC(=O)Cc1cccs1 with Receptor tyrosine-protein kinase erbB-2 (Homo sapiens) (UniProt P04626), please?
Key: 87.5

Exercise: Recorded Her2 level for CCOC(=O)N1CCN(C(=O)c2ccc(CS(=O)(=O)c3c(Cl)cccc3Cl)o2)CC1 with Receptor tyrosine-protein kinase erbB-2 (Homo sapiens) (UniProt P04626), please?
Key: 128

Exercise: Recorded Her2 level for CC12CN3CC(C)(CN(C1)C3c1ccc(Cl)cc1Cl)C2=O (stereo not given) with Receptor tyrosine-protein kinase erbB-2 (Homo sapiens) (UniProt P04626), please?
Key: 102

Exercise: Recorded Her2 level for CCOC(=O)c1ccccc1NC(=O)CSc1nccn1C with Receptor tyrosine-protein kinase erbB-2 (Homo sapiens) (UniProt P04626), please?
Key: 94

Exercise: Recorded Her2 level for CCn1cc(C(=O)NCCCOC)c(=O)c2cc(S(=O)(=O)N(C)C)ccc21 with Receptor tyrosine-protein kinase erbB-2 (Homo sapiens) (UniProt P04626), please?
Key: 106

Exercise: Recorded Her2 level for Cc1ccc(-c2cc3nc4c(c(=O)n3[nH]2)CCCC4)cc1 with Receptor tyrosine-protein kinase erbB-2 (Homo sapiens) (UniProt P04626), please?
Key: 119

Exercise: Recorded Her2 level for COCCCNC(=O)c1ccc(CS(=O)(=O)c2ccc(OC)cc2)o1 with Receptor tyrosine-protein kinase erbB-2 (Homo sapiens) (UniProt P04626), please?
Key: 105

###

Below, each of the compounds is paired with its reported viability increase value.
test: doxorubicin toxicity protection in MRP-1 cells – H69AR cells, CellTiter-Glo, duplicate, MRP-1 activator project, pilot screen (AID 807); conditions: H69AR viability with doxorubicin, CellTiter-Glo luminescence; at 10 µM; stronger effect = higher value;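 note: compound pretreatment 18-22 h then 72 h combined with doxorubicin; 0% = doxorubicin alone and 100% = vehicle without doxorubicin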
Report only the number, with the unit % understood.

Solved cases (5 shown):
CCCSCCCNC(=O)Cn1cc2c(n1)CCC(C)C2 (stereo unspecified) ... -0.9
Cc1ccc(Cn2c(CN3CCOCC3)nc3c2c(=O)n(C)c(=O)n3C)cc1 ... -4.67
Cn1cccc1Cc1nnc(SCC(=O)N2CCCCCC2)n1-c1ccc(F)cc1 ... -1.67
O=c1c2c3c(sc2nc2n1CCCCC2)CCCCC3 ... 0.17
COC(=O)C1(C)Nc2ccccc2C(=O)N1c1ccccc1C (stereo unspecified) ... -0.74

Exercise: Endpoint output: viability increase of N#CC1=C(N)Oc2cc(O)ccc2C1C1CCCCC1 (stereo unspecified) . Value?
Key: -5.63

Exercise: Endpoint output: viability increase of O=C(Cn1nc(Cc2ccncc2)c2ccccc2c1=O)N1CCc2ccccc2C1 . Value?
Key: -2.78

Exercise: Endpoint output: viability increase of CC(C)=CC(=O)OCC(=O)NC(=O)NC(C)(C)C . Value?
Key: -3.01

Exercise: Endpoint output: viability increase of Cc1nc(NCc2ccc3c(c2)OCO3)c2oc3ccccc3c2n1 . Value?
Key: -0.11

Exercise: Endpoint output: viability increase of CC(c1ccco1)N(C(=O)c1ccc(S(=O)(=O)N2CCCCC2)cc1)c1ccccn1 (stereo unspecified) . Value?
Key: -4.13

Exercise: Endpoint output: viability increase of Cc1ccc(-c2cc(C(F)(F)F)n3nc(C(=O)N4CCCC4)cc3n2)cc1 . Value?
Key: -2.2

###

assay: S. cerevisiae growth inhibition in restrictive medium, OD615, pilot screen, restrictive growth control, yeast lifespan reduction project (AID 706); conditions: OD615, 48 h, at 10 µM, stronger effect = higher value;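 note: modified DeaD lifespan yeast strain shifted to restrictive glucose medium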
Endpoint name: growth inhibition (%)
Report only the number, with the unit % understood.

Solved cases (5 shown):
COc1cccc2cc(C(=O)N3CCC(C)CC3)c(=O)oc12 ... -3.85
Cc1onc(-c2ccccc2Cl)c1C(=O)N1CCc2ccccc21 ... -8.1
CC1=C(C(N)=O)C(c2ccccn2)n2nc(SCc3ccccc3)nc2N1 (configuration not stated) ... 3.69
Cc1cccc(N2C(=O)CC(N3CCN(c4cccc(C(F)(F)F)c4)CC3)C2=O)c1 (configuration not stated) ... -8.65
O=C(NCc1ccc2c(c1)OCO2)C1CCCN(S(=O)(=O)c2cccc3cccnc23)C1 (configuration not stated) ... -10.5

Exercise: Endpoint output: growth inhibition of COc1cc(OC)c(Cl)cc1N . Value?
Key: -16.7

Exercise: Endpoint output: growth inhibition of CN(C)CCCNc1ncnc2c1cnn2-c1ccccc1 . Value?
Key: -5.82

Exercise: Endpoint output: growth inhibition of O=C(CCCCC(=O)N1CCN(c2ccccc2)CC1)N1CCN(c2ccccc2)CC1 . Value?
Key: 8.9

###

Below, each of the compounds is paired with its reported viability value.
experiment: H69AR cell proliferation blockers – human, duplicate replicates, primary screen (AID 580); details: H69AR lung tumor cells viability, ATP luminescence, 72 h; at 10 µM; stronger effect = lower value;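 note: 100% = mean luminescence of untreated wells and 0% = no signal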
Report only the number, with the unit % understood.

CCOc1ccc(C2CC(c3cccc(OC)c3)Nc3nc(N)nn32)cc1 (stereo not drawn) ... 90.7

Exercise: Endpoint output: viability of CC1CCN(Cc2ccc(NC(=O)C3CCN(c4nnc(-n5cccc5)s4)CC3)cc2)CC1 . Value?
Key: 78.5

Exercise: Endpoint output: viability of Cc1cc(NS(=O)(=O)c2ccc(NC(=O)COc3ccccc3C(C)C)cc2)no1 . Value?
Key: 88.9

Exercise: Endpoint output: viability of COc1ccccc1OCCNC(=O)c1cccs1 . Value?
Key: 91.1

Exercise: Endpoint output: viability of O=C(c1cc2ccccc2oc1=O)N1CCN(c2ccc(N3CCOCC3)nn2)CC1 . Value?
Key: 101

###

experiment: RAM signaling pathway blockade in yeast – S. cerevisiae, Pdr1DBD-CYC8 efflux-inhibited sensitized strain, primary screen (AID 1298);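 note: 0% = DMSO untreated cells without growth and 100% = 10 µM 1-NA-PP1 full growth; higher means more yeast growth rescued from 5-FOA killing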; details: S. cerevisiae cbk1-as DSE1-URA3 strain, 5-FOA growth OD615, 2 d; at 50 µM; stronger effect = higher value
Below, each of the compounds is paired with its reported RAM network inhibition value.
Report only the number, with the unit % understood.

Solved cases (6 shown):
COc1ccc(-c2nc(C)c(C(C)=O)n2O)cc1OC ... 2.4
CCn1c(CCNC(=O)c2ccc(OC)c(OC)c2)nc2ccccc21 ... 4.36
CCN1CCN(C(=O)C2CCN(C(=O)c3cc4sccc4n3CC)CC2)CC1 ... 0.58
Cc1cccc(NC(=O)Nc2cccc(C#N)c2)n1 ... 2.88
Cc1noc(C)c1S(=O)(=O)N1CCN(Cc2ccc3c(c2)OCO3)CC1 ... 8.84
Cn1c(=O)c2cc(S(=O)(=O)NC(C(=O)Nc3cccnc3)c3ccccc3)ccc2n(C)c1=O (stereo not given) ... 0.58

Consider the record given below.
Exercise: Endpoint output: RAM network inhibition of CC1CCN(Cc2nc3c(c(=O)n(C)c(=O)n3C)n2Cc2cccc3ccccc23)CC1 . Value?
Key: 7.49
